Provide the recorded microsomal CLint at 10 μM for the entries that follow.
experiment: Enzymatic stability in human liver S9 fractions; assay type: in vitro ADME; settings: pooled human liver S9 fraction; 0.5 mg/ml human liver S9, 10 μm compound, 37° C., pH 7.4
Answers are plain numbers, in µL/min/mg.

INSERT INTO assay_data (compound, readout_unit, recorded_measurement) VALUES
  ('CN1CCN(C(=O)c2ccc3cc(CCNc4ccnc5ccc(C#N)cc45)ccc3c2)CC1 [Compound 5]', 'µL/min/mg', 7.2);

-- ask Specify microsomal CLint at 10 μM for N#Cc1ccc2nccc(NCCc3ccc4cc(C(=O)N5CCNCC5)ccc4c3)c2c1 [Compound 18] and stop.
-- reply 4.4

---

target: CDK8/CyclinC (Homo sapiens, UniProt P49336); assay: LanthaScreen TR-FRET binding to recombinant CDK8 in complex with Cyclin C; conditions: CDK8/CyclinC 5 nM, Tracer 236 10 nm, average of several runs; read-out: CDK8-CycC IC50
Sequence (P49336 whole entry): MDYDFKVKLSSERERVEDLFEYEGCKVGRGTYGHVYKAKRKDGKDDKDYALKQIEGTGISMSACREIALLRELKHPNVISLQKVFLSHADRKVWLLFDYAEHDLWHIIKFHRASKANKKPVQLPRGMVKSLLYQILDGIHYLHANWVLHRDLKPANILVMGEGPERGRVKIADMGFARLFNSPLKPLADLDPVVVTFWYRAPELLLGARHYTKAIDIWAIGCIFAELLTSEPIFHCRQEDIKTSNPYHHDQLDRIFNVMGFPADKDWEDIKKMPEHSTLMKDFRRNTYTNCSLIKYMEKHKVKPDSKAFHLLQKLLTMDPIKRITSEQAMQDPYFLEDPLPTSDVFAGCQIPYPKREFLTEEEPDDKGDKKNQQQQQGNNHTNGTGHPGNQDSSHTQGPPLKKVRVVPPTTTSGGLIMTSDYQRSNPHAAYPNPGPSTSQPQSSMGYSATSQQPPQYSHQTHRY
Sequence (P24863 whole entry partner): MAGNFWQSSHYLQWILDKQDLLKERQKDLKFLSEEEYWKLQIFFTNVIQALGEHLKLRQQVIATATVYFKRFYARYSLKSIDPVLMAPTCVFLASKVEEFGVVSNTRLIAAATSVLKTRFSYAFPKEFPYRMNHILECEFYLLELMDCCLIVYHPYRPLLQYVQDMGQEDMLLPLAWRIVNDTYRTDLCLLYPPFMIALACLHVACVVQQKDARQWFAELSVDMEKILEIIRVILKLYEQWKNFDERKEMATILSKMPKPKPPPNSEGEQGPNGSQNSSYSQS
pIC50: −log10 of the molar value.
Mark rule met for reported pIC50 of 7 or greater; mark rule not met for anything smaller.

Answered cases to consult:
INSERT INTO assay_data (compound, assigned_label) VALUES
  ('CCN1CCN(C(=O)c2ccc3cc(CCNc4ccnc5ccc(C#N)cc45)ccc3c2)CC1 [Compound 12]', 'rule met'),
  ('N#Cc1ccc2nccc(NCCc3ccc4cc(C(=O)N5CCN(CC(F)(F)F)CC5)ccc4c3)c2c1 [Compound 17]', 'rule met'),
  ('CN1CCN(C(=O)c2ccc3cc(CCOc4ccnc5ccc(C#N)cc45)ccc3c2)CC1 [Compound 8]', 'rule met');

-- ask Please check the record CN1CCN(C(=O)c2ccc3cc(CCNc4ccnc5ccc(C#N)cc45)ccc3c2)CC1 [Compound 5] and state if its pIC50 is at or above 7.
-- reply rule met

-- ask Dear colleague, could you confirm whether CN1CCN(C(=O)c2ccc3cc(CCNc4cnnc5ccc(C#N)cc45)ccc3c2)CC1 [Compound 4] has pIC50 at or above 7?
-- reply rule not met

-- ask Tell me whether pIC50 is at least 7 here: CN1CCN(C(=O)c2ccc3cc(CCNc4ccnc5ncc(C#N)cc45)ccc3c2)CC1 [Compound 11]
-- reply rule not met

-- ask Check the entry CN1CCN(C(=O)c2ccc3cc(CCNc4c(Cl)cnc5ccc(C#N)cc45)ccc3c2)CC1 [Compound 9] : does pIC50 equal or exceed 7?
-- reply rule met

-- ask Reported pIC50 reaches at least 7 for N#Cc1ccc2nccc(NCCc3ccc4cc(C(=O)N5CCOCC5)ccc4c3)c2c1 [Compound 13] ?
-- reply rule met

-- ask Threshold query (pIC50 >= 7) on CC(C)N1CCN(C(=O)c2ccc3cc(CCNc4ccnc5ccc(C#N)cc45)ccc3c2)CC1 [Compound 7]
-- reply rule met

---

So I've got a bunch of compounds here, and I need their efflux ratio at 2 h, 10 μM values.
assay: Permeability through a monolayer of Caco-2 cells; format: in vitro ADME; conditions: human, Papp B-A/Papp A-B, 2 h
Give bare numbers.

INSERT INTO measurements (compound_smiles, measured_quantity, recorded_measurement) VALUES
  ('N#Cc1ccc2nccc(NCCc3ccc4cc(C(=O)N5CCNCC5)ccc4c3)c2c1', 'efflux ratio at 2 h, 10 μM', 0.3);

Pending compound:
-- ask Please look at this compound and report its efflux ratio at 2 h, 10 μM: CN1CCN(C(=O)c2ccc3cc(CCNc4ccnc5ccc(C#N)cc45)ccc3c2)CC1
-- reply 2

---

assay: General cytotoxicity test on HepG2 cells; type: cell-based; conditions: human, 72 hours incubation, 200 to 0.78 μM, average of several runs, read-out: Hep-G2 CC50
measured_quantity: CC50 at 72 h

Please review the entries below; each comes with its answer.
INSERT INTO assay_data (compound, measured_quantity, recorded_measurement) VALUES
  ('CN1CCN(C(=O)c2ccc3cc(CCNc4ccnc5ccc(C#N)cc45)ccc3c2)CC1 [Compound 5]', 'CC50 at 72 h', '> 60 µM'),
  ('N#Cc1ccc2nccc(NCCc3ccc4cc(C(=O)N5CCOCC5)ccc4c3)c2c1 [Compound 13]', 'CC50 at 72 h', '~15 µM');

Shift focus to the following entry.
-- ask Fill in CC50 at 72 h for record CN1CCN(C(=O)c2ccc3cc(CCSc4ccnc5ccc(C#N)cc45)ccc3c2)CC1 [Compound 19]
-- reply > 200 µM
